system: goat-anti-mouse IgG aggregate; assay: Fluorescence enhancement (aggregate/native IgG) in the presence of excipients; assay type: binding; settings: Ammonium Sulfate, 100 mM; 2.8 μM IgG, 0.625 μM dye
measured_quantity: Fluorescence enhancement (aggregate/native IgG) (fold)
Only the number, expressed in fold, is required.

# molecule, system_under_test, units_text, value_measured
records = [
    ("CN(C)c1ccc(/C=C/c2cc[n+](CCCCCC[n+]3ccc(/C=C/c4ccc(N(C)C)cc4)cc3)cc2)cc1.CS(=O)(=O)[O-].CS(=O)(=O)[O-]", "goat-anti-mouse IgG aggregate", "fold", 14.6),
    ("Cc1c[n+](CCCCCCCCCC[n+]2ccc(/C=C/c3ccc(N(C)C)cc3)c(C)c2)ccc1/C=C/c1ccc(N(C)C)cc1", "goat-anti-mouse IgG aggregate", "fold", 13.4),
    ("CCN(CC)c1ccc(/C=C/c2cc[n+](CCCCCCCCCC[n+]3ccc(/C=C/c4ccc(N(CC)CC)cc4)c(C)c3)cc2C)cc1", "goat-anti-mouse IgG aggregate", "fold", 12.5),
]

// next item, Fluorescence enhancement (aggregate/native IgG) requested
molecule Cc1ccc2c(c1)sc(-c1ccc(N(C)C)cc1)[n+]2C.[Cl-] [Thioflavin-T, Thioflavin T, reference compound] , Fluorescence enhancement (aggregate/native IgG) observed: 2.6

---

system: goat-anti-mouse IgG aggregate; assay: Fluorescence enhancement (aggregate/native IgG) in the presence of excipients; format: binding; conditions: Ammonium Sulfate, 300 mM; 2.8 μM IgG, 0.625 μM dye
measured_quantity: Fluorescence enhancement (aggregate/native IgG) (fold)
Field: numeric (fold). Do not append units.

Solved cases (3 shown):
# compound, system_under_test, value_measured
rows = [
    ("CCN(CC)c1ccc(/C=C/c2cc[n+](CCCCCCCCCC[n+]3ccc(/C=C/c4ccc(N(CC)CC)cc4)c(C)c3)cc2C)cc1", "goat-anti-mouse IgG aggregate", 14.6),
    ("CN(C)c1ccc(/C=C/c2cc[n+](CCCCCC[n+]3ccc(/C=C/c4ccc(N(C)C)cc4)cc3)cc2)cc1.CS(=O)(=O)[O-].CS(=O)(=O)[O-]", "goat-anti-mouse IgG aggregate", 13.3),
    ("Cc1ccc2c(c1)sc(-c1ccc(N(C)C)cc1)[n+]2C.[Cl-] [Thioflavin-T, Thioflavin T, reference compound]", "goat-anti-mouse IgG aggregate", 1.4),
]

Lab note: next compound to report on.
For reference, reported Fluorescence enhancement (aggregate/native IgG) for Cc1c[n+](CCCCCCCCCC[n+]2ccc(/C=C/c3ccc(N(C)C)cc3)c(C)c2)ccc1/C=C/c1ccc(N(C)C)cc1 stands at 16.9

---

test system: goat-anti-mouse IgG aggregate; experiment: Fluorescence enhancement (aggregate/native IgG) in the presence of excipients; format: binding; settings: Tween 20, 0.01%; 2.8 μM IgG, 0.625 μM dye
measured_quantity: Fluorescence enhancement (aggregate/native IgG)

# compound, value_measured
measured = [
    ("Cc1ccc2c(c1)sc(-c1ccc(N(C)C)cc1)[n+]2C.[Cl-] [Thioflavin-T, Thioflavin T, reference compound]", "4.6 fold"),
    ("CCN(CC)c1ccc(/C=C/c2cc[n+](CCCCCCCCCC[n+]3ccc(/C=C/c4ccc(N(CC)CC)cc4)c(C)c3)cc2C)cc1", "5.5 fold"),
    ("Cc1c[n+](CCCCCCCCCC[n+]2ccc(/C=C/c3ccc(N(C)C)cc3)c(C)c2)ccc1/C=C/c1ccc(N(C)C)cc1", "8.5 fold"),
]

// Fluorescence enhancement (aggregate/native IgG) lookup, compound = CN(C)c1ccc(/C=C/c2cc[n+](CCCCCC[n+]3ccc(/C=C/c4ccc(N(C)C)cc4)cc3)cc2)cc1.CS(=O)(=O)[O-].CS(=O)(=O)[O-] , result: 70.8 fold
